- Test system: DU-145 prostate
- ASSAY INFO: NCI-60 one-dose screen, 48 h (100 = growth as untreated, 0 = no growth, -100 = all killed)
- PARTICULARS: 10 µM unless noted
Compounds without any hit were thinned out: in the full panel of roughly 83,000, 20% have a hit.
MEASUREMENT TYPE: growth (%)
Your answer is read as %, so omit the unit and give the number.

Prompt: Which growth is listed for CC(C)(C)c1ccc2oc(=O)n(SC(Cl)(Cl)Cl)c2c1 ?
Response: 111

Prompt: Tell me the measured growth of O=CN1N=C(c2ccc(Cl)cc2)CC1c1cccc(Nc2ccnc3cc(C(F)(F)F)ccc23)c1 (centres undefined) , please.
Response: 70.1

Prompt: Name the reported growth value associated with the compound O=C1[C@@H](OS(=O)(=O)CC(F)(F)F)[C@H](c2ccc(F)cn2)N1c1cc2c3ccccc3ccc2c2ccccc12
Response: 84.5

Prompt: growth lookup needed for CCOC(=O)c1sc(/N=C2\NC(=O)/C(=C/c3ccc(N4CCN(C)CC4)cc3)S2)nc1C , thanks.
Response: 97.3

Prompt: Fill blank: measured growth of the compound COc1cc(C2=N/C(=C\c3cc4ccccc4nc3Oc3ccccc3)C(=O)N2C(=N)N)cc(OC)c1OC is ____.
Response: 80.4

Prompt: // query growth value for entry Cc1nc2sc(C(=O)Nc3cccc4ccccc34)c(N)c2cc1C(C)O (centres undefined)
Response: 13.6

Prompt: Need growth, item NC(=N\N=C\c1ccccc1O)/C(N)=N/N=C/c1ccccc1O
Response: 80.1

Prompt: Entry under review: CS(=O)(=O)O[C@@H]1C(=O)N(c2cc3c4ccccc4ccc3c3ccccc23)[C@H]1c1ccc(F)cn1 . Reported growth?
Response: 11.5

Prompt: Need growth, item O=CN1N=C(c2ccc(F)cc2)CC1c1cccc(Nc2ccnc3cc(C(F)(F)F)ccc23)c1 (centres undefined)
Response: 70.9

* * *

- Test system: NCI-H23 lung
- ASSAY INFO: NCI-60 one-dose screen, 48 h
- PARTICULARS: 10 µM unless noted
About 83,000 compounds went through this panel and 20% of them were active in at least one assay; those are over-represented in the sample as a whole. The source made the active and inactive calls. Rule for the calls: active = growth percent below 10; inactive = the rest.
Output constraint: value belongs to active, inactive

Prompt: Check the results log: what was the call for Nc1c(C(=O)c2ccccc2)sc2nc(-c3cc4ccccc4o3)cc(-c3ccc(Cl)cc3)c12 ?
Response: inactive

Prompt: Short answer needed: outcome of this test for CC(C)Cc1cc(CNC(=O)C2[C@H]3CN(C(=O)c4ccccc4)C[C@@H]23)nn1-c1ccccc1 (stereo partly specified) ?
Response: inactive

Prompt: Hi, sorry to bother you, what did the test record for Cc1nnc(/N=C2\NC(=O)/C(=C/c3ccsc3)S2)s1 ?
Response: inactive

Prompt: Hi, sorry to bother you, what did the test record for COc1ccc2c(c1)C1(C(=O)N2)C(C#N)=C(c2ccccc2)Nc2c1c(-c1ccccc1)nn2-c1ccccc1 (stereo unspecified) ?
Response: inactive

Prompt: Answer briefly: the call reported for COc1ccc(C2C(c3ccccc3)C(=O)N2c2cc(OC)c(OC)c(OC)c2)cc1I (stereo unspecified) in this assay.
Response: inactive

Prompt: Called result for COc1ccc(Cc2nc(C#N)c(N3CCN(c4ccc(F)cc4)CC3)o2)cc1
Response: inactive

Prompt: Recorded test outcome, item O=c1[nH]c2ccccc2cc1-c1nc2ccncc2[nH]1
Response: inactive

Prompt: Each molecule tested received a call. Report the one for Cc1cc(C)c2nc(Nc3nc(C)c(C)c(=O)[nH]3)nc(C)c2c1 .
Response: inactive

Prompt: Lab log entry: COc1ccc(-c2nnc(N3CCN(C(=O)CN4CCN(c5ccc(OC)cc5)CC4)CC3)nc2-c2ccc(OC)cc2)cc1 — outcome as called in the assay?
Response: inactive

Prompt: Hi team, can someone confirm the assay call for C[C@H]1[C@H](C)CC[C@]2(C(=O)OCCOCCOCC[P+](c3ccccc3)(c3ccccc3)c3ccccc3)CC[C@]3(C)C(=CC[C@@H]4[C@@]5(C)CC[C@H](OC(=O)C(Cl)Cl)C(C)(C)[C@@H]5CC[C@]43C)[C@H]12 ?
Response: active

Prompt: Outcome logged for O=C1C(Cl)=C(NCCCN(CCCNC2=C(Cl)C(=O)c3ccccc3C2=O)C2=C(Cl)C(=O)c3ccccc3C2=O)C(=O)c2ccccc21 in this assay:
Response: active

Prompt: Outcome? Nc1ccc(C(=O)Nc2cccc(C(=O)Nc3ccc4c(O)c(N=Nc5ccc(N=Nc6ccc(S(=O)(=O)O)cc6)cc5)c(S(=O)(=O)O)cc4c3)c2)cc1
Response: inactive

Prompt: Lab log entry: Nc1ccc(C2=NN(C(=O)c3cc(-c4ccc(Cl)cc4)nc4ccccc34)C(c3ccc(Cl)cc3)C2)cc1 (stereo unspecified) — outcome as called in the assay?
Response: inactive

Prompt: Call for entry C#Cc1ccccc1NC(=O)c1sc2nc3c(cc2c1N)CCCCC3 :
Response: inactive

Prompt: Field: outcome | Entry: NS(=O)(=O)c1ccc(-n2nc(-c3ccccc3)ccc2=O)cc1
Response: inactive

Prompt: Look up the recorded call for S=c1ssnc1-c1cc2ccccc2o1 in this test.
Response: inactive

Prompt: Could you kindly confirm the outcome this assay logged for COc1cccc2c1-c1ccccc1C2=O ?
Response: inactive

Prompt: What did this assay record as the result for CCCCN(CCCC)CC(CN(CC)CC)OC(=O)Nc1ccccc1 (stereo unspecified) ?
Response: inactive

Prompt: Tell me the recorded outcome of this test for O=C(O)COc1ccc2c(=O)c3sc4c(=O)c5ccccc5c(=O)c4c3c(=O)c2c1 .
Response: active

Prompt: Please state the recorded outcome for this molecule: Cc1ccc(-c2nc(C#N)c(S(=O)(=O)N(C)CCO)o2)cc1
Response: inactive

Prompt: Hi, do you know how O=c1[nH]c(-c2cccc(F)c2)cc2cc(F)ccc12 came out in this test?
Response: inactive

Prompt: Please share the test call associated with Cc1cc(C)c(NC(=O)c2sc3nc4c(cc3c2N)CCCCCC4)c(C)c1 .
Response: inactive

Prompt: Outcome? CCCCn1c(=O)c(/C=C/C(=O)/C=C/c2cc3ccccc3n(CCCC)c2=O)cc2ccccc21
Response: active

Prompt: Please share the test call associated with O=C(O)C(C(=O)O)c1cccc2ccccc12 .
Response: inactive

Prompt: Assay outcome for CCO/C=N/S(=O)(=O)c1cc2c(cc1Cl)NC=NS2(=O)=O : what was it?
Response: inactive

Prompt: State the result this test recorded for CC(=O)OC[C@]12CC[C@@H](c3cn(Cc4ccc(Cn5cc([C@@H]6CC[C@]7(COC(C)=O)CC[C@]8(C)[C@H](CC[C@@H]9[C@@]%10(C)CC[C@H](OC(C)=O)C(C)(C)[C@@H]%10CC[C@]98C)[C@@H]67)nn5)cc4)nn3)[C@@H]1[C@H]1CC[C@@H]3[C@@]4(C)CC[C@H](OC(C)=O)C(C)(C)[C@@H]4CC[C@@]3(C)[C@]1(C)CC2 .
Response: inactive

Prompt: Look up the recorded call for CCOCCc1c(O)nc(SC)[nH]c1=O in this test.
Response: inactive

Prompt: Hi, do you know how CC1=C/C(=N\N=C2/C=C(C)CC(C)(C)C2)CC(C)(C)C1 came out in this test?
Response: inactive

Prompt: For Cc1cc(C)n(-c2nc(-c3cccs3)c(C#N)c(=O)[nH]2)n1 , which call appears in the assay record?
Response: inactive

Prompt: Recorded call for COc1ccccc1C(=O)/C=C/c1cc2cccc(OC)c2[nH]c1=O ?
Response: active

Prompt: Look up the recorded call for Nc1cccc(C(=O)Nc2ccc3c(O)c(N=Nc4ccc(N=Nc5ccc(S(=O)(=O)O)cc5)cc4)c(S(=O)(=O)O)cc3c2)c1 in this test.
Response: inactive

Prompt: Returns: the outcome recorded for O=C(/C(=C/c1ccc([N+](=O)[O-])cc1)SCc1ccc(Cl)cc1)c1ccc(F)cc1 in this assay.
Response: inactive

Prompt: # fetch the recorded call for COc1ccc(-c2cc(-c3nnc(SCC(=O)Nc4ccc(/C(C)=N\O)cc4)n3-c3ccccc3)c3cc(OC)ccc3n2)cc1 here
Response: inactive

Prompt: GET /call?item= C=C(C)[C@@H]1CC[C@]2(C(=O)N3CCN(C)CC3)CC[C@]3(C)[C@H](CC[C@@H]4[C@@]5(C)C/C(=C/c6ccco6)C(=O)C(C)(C)[C@@H]5CC[C@]43C)[C@@H]12 returns the recorded outcome of this test.
Response: inactive

Prompt: Please state the recorded outcome for this molecule: Nc1c(C(=O)Nc2ccccn2)sc2nc3c(cc12)CCCCCC3
Response: inactive

Prompt: What classification did Oc1ccccc1-c1nc2c3ccccc3c3ccccc3c2o1 end up with in this test?
Response: inactive

* * *

- Tested on: NCI-H322M lung
- ASSAY INFO: NCI-60 one-dose screen, 48 h
- PARTICULARS: 10 µM unless noted
The panel holds about 83,000 compounds, 20% with a hit somewhere; the sample as a whole holds those more often. Active and inactive are the calls of the source. Rule for the calls: active = growth percent below 10; inactive = the rest.
Respond only with the outcome that fits, drawn from label 1 for active, label 0 for inactive

Prompt: Test call for this molecule, please: CN1CC=C(c2cc(NC(=O)Nc3ccc(Oc4ccnc(NC(=O)C5CC5)c4)c(F)c3)cc(C(F)(F)F)c2)CC1
Response: label 1

Prompt: Which outcome was entered for the molecule COc1cc(C2=N/C(=C\c3cc4ccccc4nc3Oc3ccccc3)C(=O)N2C(=N)N)cc(OC)c1OC in this test?
Response: label 0

Prompt: Would you mind telling me which call this test gave CC(=O)ON1CCCC(P(=O)(OCOC(=O)C(C)(C)C)OCOC(=O)C(C)(C)C)C1=O (configuration not stated) ?
Response: label 1

Prompt: Look up the recorded call for COc1cc2cc(c1Cl)N(C)C(=O)C[C@H](OC(=O)[C@H](C)N(C)C(=O)CCS)C[C@]1(C)O[C@H]1[C@H](C)[C@@H]1C[C@@](O)(NC(=O)O1)[C@H](OC)/C=C/C=C(\C)C2 in this test.
Response: label 0

Prompt: Called result for O=C1NCc2ccc3c(-c4cccc(Cl)c4)c[nH]c3c21
Response: label 0

Prompt: I would be grateful if you could indicate the recorded call for C=C1C(=O)O[C@H]2[C@H]1CC/C(COC(=O)N1CCC[C@H]1C(=O)Nc1ccc(OC)c(C(N)=O)c1O)=C\CC[C@@]1(C)O[C@@H]21 .
Response: label 0

Prompt: How did this test come out for Cc1nn(-c2ccc(-c3ccc(OC(F)(F)F)cc3)cc2)c2nc(-c3ccccc3)nc(N)c12 ?
Response: label 0

Prompt: Entry O=C(/C(=C/c1ccc([N+](=O)[O-])cc1)SCc1ccc(F)cc1)c1ccc(Cl)cc1 : call = ?
Response: label 0

Prompt: Dear colleague, could you share the recorded outcome for COc1cc(-c2csc(NC(=O)Nc3ccc(Cl)cc3)n2)cc(OC)c1OC when you have a moment?
Response: label 0

Prompt: Assay result, entry O=C(O)CCNC1CCCCC1 — outcome?
Response: label 0

Prompt: Recorded test outcome, item C=C1C(=O)O[C@H]2[C@H]1CC/C(COC(=O)NCc1nc3ccccc3[nH]1)=C\CC[C@@]1(C)O[C@@H]21
Response: label 0

Prompt: Call for entry OCCNc1nc(NCCO)nc(Nc2ccc(C3=NN(c4cc(Cl)cc(Cl)c4)C(c4ccc(C(F)(F)F)cc4)C3)cc2)n1 (configuration not stated) :
Response: label 0

Prompt: Fill in: this test's call for Cn1cc(-c2ccc3c(c2)ncn3-c2ccc(CC(=O)Nc3cc(C(C)(C)C)on3)cc2)cn1 is ___
Response: label 1

Prompt: In this assay, the call recorded for CCC1S/C(=N\N=C(/C)c2ccc[nH]2)N(c2ccccc2)C1=O (configuration not stated) was what?
Response: label 0

Prompt: // outcome(item) with item = NC(=O)c1ccc2nc3c(n2c1)C(=O)C(=O)c1ccccc1-3
Response: label 1

Prompt: Lab log entry: CCC[S@@](=O)c1ccc2nc(NC(=O)OC)[nH]c2c1 — outcome as called in the assay?
Response: label 0

Prompt: // return assay outcome for CSc1nc(-c2cccs2)c2c(N)[nH]nc2n1
Response: label 0

Prompt: Write down the call the test reported for this molecule. Item: O=C(CSC(=S)N1CCCCC1)Nc1ccccc1
Response: label 0

Prompt: Short answer needed: outcome of this test for COc1ccc(Cc2nc(C#N)c(N3CCN(c4ccc(F)cc4)CC3)o2)cc1 ?
Response: label 0

Prompt: Query: recorded result category for CNc1cccc2c1C(=O)c1cccc(N)c1C2=O in this test
Response: label 0

Prompt: // outcome(item) with item = O=C(NCc1ccccc1)c1ccc2c(c1)NC(=O)[C@@H]1CCCN21
Response: label 0

Prompt: Status in this test for N#Cc1c(-c2ccc(F)cc2)nc(N/N=C/c2cccc(O)c2)nc1N1CCOCC1 ?
Response: label 0

Prompt: Check the results log: what was the call for CCOC(=O)NCCc1nc2c([nH]1)c(=O)n(C)c(=O)n2C ?
Response: label 0

Prompt: Hey, what did the test say about COc1cc(C2CC(c3ccc(Nc4nc(NCCO)nc(NCCO)n4)cc3)=NN2c2cc(Cl)cc(Cl)c2)cc(OC)c1OC (configuration not stated) ?
Response: label 0

Prompt: Dear colleague, could you share the recorded outcome for O=c1c2ccccc2oc2ccc(OCCCCCCN3CCCCCC3)cc12 when you have a moment?
Response: label 0

Prompt: # outcome recorded in this test, key = CCCCCCCCCCCCCC1=NCC[N+]1(CCO)Cc1ccccc1 (configuration not stated)
Response: label 1

Prompt: Identify the outcome logged in this assay for the molecule shown: O=c1[nH]c2ccccc2cc1-c1nc2ccc(Cl)cc2[nH]1
Response: label 0

Prompt: Returns: the outcome recorded for C#C[C@@]1(O)[C@@H](CO)O[C@@H](n2cc(Cl)c3c(N)ccnc32)[C@@H]1O in this assay.
Response: label 0

Prompt: Assay outcome for O=c1cc(/C=N\Nc2nc(-c3ccc(Cl)cc3Cl)cs2)c2cc(Cl)ccc2o1 : what was it?
Response: label 0

Prompt: Call for entry Cc1cc(C)nc(NS(=O)(=O)c2ccc(Nc3ccc4c5c(n(CCCN(C)C)c(=O)c4c3)-c3ccccc3C5=O)cc2)n1 :
Response: label 0

Prompt: Record lookup: outcome of this test for CCOC(=O)c1c(C)nc2c(c1N)/C(=C/c1ccc[nH]1)C(=O)N2Cc1ccc(C(F)(F)F)cc1 ?
Response: label 0

Prompt: Any idea what this test logged for COc1cc(F)c(-c2nc3c(C)cccc3n2Cc2c(F)cccc2F)c(F)c1 ?
Response: label 0

Prompt: How was C=C(C)[C@@H]1CC[C@]2(C(=O)n3ccnc3)CC[C@]3(C)[C@H](CC[C@@H]4[C@@]5(C)CCCNC(C)(C)[C@@H]5CC[C@]43C)[C@@H]12 classified in this test?
Response: label 0

Prompt: What outcome does the record of this test show for COC(=O)c1cc2c3c(cc(O)c2[nH]1)N(C(=O)C1Cc2cc(OC)c(OC)c(OC)c2N1)CC3CCl (configuration not stated) ?
Response: label 1

Prompt: Could you kindly confirm the outcome this assay logged for COc1ccc([C@H]2[C@@H](F)C(=O)N2c2cc(OC)c(OC)c(OC)c2)cc1F ?
Response: label 0

Prompt: What outcome does the record of this test show for CO[C@@]12C=C[C@@]34CCC(=O)N3c3ccccc3[C@@H](O1)C4C2 ?
Response: label 0

Prompt: Name the outcome recorded for COc1ccc(NC(=O)Nc2ccc(Nc3nc(C)cc(Nc4ccc(C)cc4)n3)cc2)cc1 in the assay.
Response: label 1
